# credit: ChEMBL document CHEMBL1144129

Target: Adenosine receptor A1 (Rattus norvegicus, UniProt P25099)
Sequence (P25099 whole entry): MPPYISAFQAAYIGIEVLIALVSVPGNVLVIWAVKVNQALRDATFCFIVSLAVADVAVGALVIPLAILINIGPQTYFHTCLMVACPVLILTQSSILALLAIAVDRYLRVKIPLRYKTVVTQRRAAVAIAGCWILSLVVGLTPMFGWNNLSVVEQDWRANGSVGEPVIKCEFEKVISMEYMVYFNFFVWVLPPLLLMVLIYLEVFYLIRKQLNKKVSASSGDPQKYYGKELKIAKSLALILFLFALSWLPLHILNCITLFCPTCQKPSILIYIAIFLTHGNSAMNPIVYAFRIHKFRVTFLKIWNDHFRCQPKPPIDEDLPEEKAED
test.readout: IC50 (µM)
Answers are plain numbers, in µM.

q: Respond only with IC50 recorded for O=C(O)CCCCCC#C/C=C/CCCCC#C/C=C/Br
a: 106
